These entries and their values trace back to paper PMC8396340.

# measurement target: Transferrin receptor 1 (TfR, CD71) (Homo sapiens) (UniProt P02786)
# Sequence (P02786 whole entry): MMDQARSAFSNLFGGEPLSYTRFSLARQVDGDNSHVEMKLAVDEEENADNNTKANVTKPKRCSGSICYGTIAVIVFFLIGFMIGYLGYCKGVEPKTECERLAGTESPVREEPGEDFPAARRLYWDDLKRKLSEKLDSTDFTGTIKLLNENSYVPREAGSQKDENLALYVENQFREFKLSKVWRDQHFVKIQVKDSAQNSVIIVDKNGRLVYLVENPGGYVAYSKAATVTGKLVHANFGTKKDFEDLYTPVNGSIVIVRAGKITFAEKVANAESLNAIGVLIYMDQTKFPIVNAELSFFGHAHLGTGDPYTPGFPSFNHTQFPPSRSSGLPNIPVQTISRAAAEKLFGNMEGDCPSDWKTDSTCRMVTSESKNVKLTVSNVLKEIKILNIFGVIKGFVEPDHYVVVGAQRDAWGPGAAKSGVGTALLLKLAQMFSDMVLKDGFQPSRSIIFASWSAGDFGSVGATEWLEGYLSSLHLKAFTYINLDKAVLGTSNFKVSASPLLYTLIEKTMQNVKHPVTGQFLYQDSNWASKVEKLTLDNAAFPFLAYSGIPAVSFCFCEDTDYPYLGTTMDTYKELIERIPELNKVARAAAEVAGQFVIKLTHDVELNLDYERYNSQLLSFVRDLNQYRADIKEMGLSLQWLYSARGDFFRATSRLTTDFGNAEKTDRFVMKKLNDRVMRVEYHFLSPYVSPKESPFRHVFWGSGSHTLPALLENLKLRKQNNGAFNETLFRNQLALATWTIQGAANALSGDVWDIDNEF
# procedure details: flow cytometry cell binding
# test conditions: Jurkat cells, 5 mM Mg2+, PBS, 4.5 g/L glucose, 5 mM MgCl2, 1 mg/mL BSA, 0.1 mg/mL herring sperm DNA, 30 min on ice (4 C), intact cells
reported metric: Kd

INSERT INTO assay_data (sequence_content, measurement_target, observed_measurement) VALUES
  ('GGATAGGGATTCTGTTGGTCGGCTGGTTGGTATCC [HG1-9]', 'Transferrin receptor 1 (TfR, CD71) (Homo sapiens) (UniProt P02786)', '11 nM');

###

# measurement target: Transferrin receptor 1 (TfR, CD71) (Homo sapiens)
# procedure details: flow cytometry cell binding
# test conditions: HeLa cells, 5 mM Mg2+, PBS, 4.5 g/L glucose, 5 mM MgCl2, 1 mg/mL BSA, 0.1 mg/mL herring sperm DNA, 30 min on ice (4 C), intact cells
reported metric: Kd (nM)

INSERT INTO results (sequence_content, reported_metric, observed_measurement) VALUES
  ('GGATAGGGATTCTGTTGGTCGGCTGGTTGGTATCC [HG1-9]', 'Kd', 19.8);

###

Listing of recorded Kd by entry.
# measurement target: Transferrin receptor 1 (TfR, CD71) (Homo sapiens) (UniProt P02786)
# procedure details: flow cytometry cell binding
# test conditions: HCT-8T cells (cell line inferred), 5 mM Mg2+, PBS, 4.5 g/L glucose, 5 mM MgCl2, 1 mg/mL BSA, 0.1 mg/mL herring sperm DNA, 30 min on ice (4 C), intact cells
reported metric: Kd (nM)

INSERT INTO results (sequence_content, reported_metric, uom, observed_measurement) VALUES
  ('AAGGAGCAGCGTGGAGGATAGGGATTCTGTTGGTCGGCTGGTTGGTATCCTTAGGGTGTGTCGTCGTGGT [HG1]', 'Kd', 'nM', 6.48),
  ('GGATAGGGATTCTGTTGGTCGGCTGGTTGGTATCC [HG1-9]', 'Kd', 'nM', 5.4);
